Tested on: HAB1
Assay: Yeast two hybrid of pBD-PYR1 site saturation mutants with pACT-HAB1 on 10 μM ABA, β-galactosidase staining
Format: cell-based, Arabidopsis
Parameters: key: x: Mutations in PYR1 that disrupt ABA-induced binding to PYR1 to HAB1
Conditions: S. cerevisiae Y190, 10 μM ABA; dead = lack of visible staining in comparison to wild type control
readout: Mutations in PYR1 that disrupt ABA-induced binding to PYR1 to HAB1

[[record]]
molecule = "L87H: PYR1 mutant (protein, UniProt O49686 1-191, looked up, variant L87H) Abscisic acid receptor PYR1: MPSELTPEERSELKNSIAEFHTYQLDPGSCSSLHAQRIHAPPELVWSIVRRFDKPQTYKHFIKSCSVEQNFEMRVGCTRDVIVISGHPANTSTERLDILDDERRVTGFSIIGGEHRLTNYKSVTTVHRFEKENRIWTVVLESYVVDMPEGNSEDDTRMFADTVVKLNLQKLATVAEAMARNSGDGSGSQVT"
result = "x"

[[record]]
molecule = "P148K: PYR1 mutant (protein, UniProt O49686 1-191, looked up, variant P148K) Abscisic acid receptor PYR1: MPSELTPEERSELKNSIAEFHTYQLDPGSCSSLHAQRIHAPPELVWSIVRRFDKPQTYKHFIKSCSVEQNFEMRVGCTRDVIVISGLPANTSTERLDILDDERRVTGFSIIGGEHRLTNYKSVTTVHRFEKENRIWTVVLESYVVDMKEGNSEDDTRMFADTVVKLNLQKLATVAEAMARNSGDGSGSQVT"
result = "x"

